Catalogue of sequences with associated phosphorylation enrichment
Molecular target: Fyn (UniProt P06241)
Sequence (P06241 whole entry, looked up): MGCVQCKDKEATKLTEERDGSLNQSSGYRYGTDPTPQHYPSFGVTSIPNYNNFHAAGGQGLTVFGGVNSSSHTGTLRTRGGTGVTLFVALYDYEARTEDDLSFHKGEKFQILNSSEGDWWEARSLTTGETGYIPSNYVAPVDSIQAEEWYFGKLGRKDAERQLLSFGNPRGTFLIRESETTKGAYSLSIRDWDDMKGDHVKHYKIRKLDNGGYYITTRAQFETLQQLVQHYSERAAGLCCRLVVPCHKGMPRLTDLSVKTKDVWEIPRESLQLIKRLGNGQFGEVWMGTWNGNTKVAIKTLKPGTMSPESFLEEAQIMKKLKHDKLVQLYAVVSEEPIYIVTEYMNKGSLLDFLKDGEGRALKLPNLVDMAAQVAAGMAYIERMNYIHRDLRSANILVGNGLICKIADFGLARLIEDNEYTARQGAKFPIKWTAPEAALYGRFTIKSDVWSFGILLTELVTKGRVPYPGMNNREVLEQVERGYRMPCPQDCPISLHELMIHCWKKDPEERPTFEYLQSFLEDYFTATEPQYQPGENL
Test: phosphorylation enrichment, bacterial display (enrichment ratio); higher = better substrate or ligand; peptides without Tyr show the background;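 further: 11-residue human phosphosite peptides and single-mutation variants displayed on the E. coli surface, counted by deep sequencing, each peptide's frequency after selection divided by its frequency in the unselected input library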;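 further: frequency after pTyr selection over input frequency; kinase dosed for 20-30% of maximal phosphorylation in three min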
In your answer, state the number alone without any accompanying words.

A selection of reference data follows.
sequenceData	phosphorylation enrichment
RHRSGYVLIAM [EFR3A_Y73]	0.605
FHKALYTVRTY [PDE6C_Y266_S270T]	0.599

Now look at this entry.
### Prompt Read the entry YSNVLYRPRGA [TMIGD2_Y197] and write its reported phosphorylation enrichment.
### Response 0.615

###

Target: Hck (UniProt P08631)
Sequence (P08631 whole entry, looked up): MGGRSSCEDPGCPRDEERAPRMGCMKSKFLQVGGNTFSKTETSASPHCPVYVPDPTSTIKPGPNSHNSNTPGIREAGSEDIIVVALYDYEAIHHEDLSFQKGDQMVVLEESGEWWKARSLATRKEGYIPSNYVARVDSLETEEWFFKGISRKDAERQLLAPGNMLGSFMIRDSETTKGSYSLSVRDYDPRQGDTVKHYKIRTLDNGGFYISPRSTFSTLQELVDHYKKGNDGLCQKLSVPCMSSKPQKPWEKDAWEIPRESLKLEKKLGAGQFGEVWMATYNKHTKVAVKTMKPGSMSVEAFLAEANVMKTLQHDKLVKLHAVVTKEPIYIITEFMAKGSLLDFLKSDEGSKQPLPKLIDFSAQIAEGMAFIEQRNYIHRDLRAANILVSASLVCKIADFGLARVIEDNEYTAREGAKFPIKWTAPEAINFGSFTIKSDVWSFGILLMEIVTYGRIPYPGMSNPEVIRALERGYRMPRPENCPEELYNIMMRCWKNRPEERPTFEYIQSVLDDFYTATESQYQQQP
Experiment: phosphorylation enrichment, bacterial display (enrichment ratio); higher = better substrate or ligand; peptides without Tyr show the background
measuredQuantity: phosphorylation enrichment
In your answer, state the number alone without any accompanying words.

sequenceData	phosphorylation enrichment
ATHSRYRLNDF [CLDN14_Y233_G232R_YF]	0.449
IDSTPYRQWFE [RPS8_Y109_YF]	0.442
GYAGKYIAMVM [CYP19A1_Y441_C437Y]	0.526
FKDGQYWIRGW [ACSF3_Y466_R471W]	0.799
QPGTDYKIFLF [FN1_Y1970_YF]	0.924

### Prompt Read the entry SVETPYGSVTF [NDRG2_Y47] and write its reported phosphorylation enrichment.
### Response 2.16

### Prompt Read the entry ADLAKYICENQ [ALB_Y287] and write its reported phosphorylation enrichment.
### Response 0.627

### Prompt Read the entry REEKNYKLKET [BCLAF1_Y459] and write its reported phosphorylation enrichment.
### Response 0.861

### Prompt Read the entry QRDSSYYWEIE [RAF1_Y340] and write its reported phosphorylation enrichment.
### Response 0.981
